tested on: MCF7; test: NCI tumour cell line growth inhibition, 48 h
Calls of active or inactive are those of the source. No stated cut-off is given here; in the data, active = GI50 up to about 1.1 µM and inactive = higher.
measurementLabel: GI50

A selection of reference data follows.
| compound | GI50 |
| --- | --- |
| CC[C@H]1CN2CCc3cc(OC)c(OC)cc3[C@@H]2C[C@@H]1C[C@H]1NCCc2c1[nH]c1ccc(O)cc21 [TUBULOSINE] | < 0.01 µM (active) |
| N#Cc1c(/C=C/c2ccccc2)c2c([nH]c1=S)CCCCC2 | > 100 µM (inactive) |

Look up GI50 for this compound: COc1ccc(C2NC3=C(CCCC3)C3(C#N)C(=O)N=C(N)C23C#N)cc1 (stereo not drawn)
> 100 µM (inactive)

====

Below, each entry is listed with its recorded GI50.
test system: A549; assay: NCI tumour cell line growth inhibition, 48 h
Active and inactive are the calls of the source. No stated cut-off is given here; in the data, active = GI50 up to about 1.1 µM and inactive = higher.

A selection of reference data follows.
| molecule | endpointValue |
| --- | --- |
| CCOC(=O)/C=C(\C(=O)OCC)n1ccc(=O)[nH]c1=O | 29.8 µM (inactive) |
| CC(O)(c1ccccc1)c1nccc2ccccc12 (centres undefined) | 87.3 µM (inactive) |
| C=CCN1C(=O)CC2[C@@H]3CCc4cc(O)ccc4C3CC[C@]2(C)C1=O (some centres undefined) | > 10 µM (inactive) |

Consider now this further molecule.
Look up GI50 for this molecule: CC(C)(C)C1CCC(O)(c2ccccc2)CC1 (centres undefined)
> 100 µM (inactive)

====

test system: IGROV-1; assay: NCI tumour cell line growth inhibition, 48 h
Active and inactive are the calls of the source. Rule as the data show it: active = GI50 up to about 1.1 µM and inactive = higher.
measurementLabel: GI50

| molecule | GI50 |
| --- | --- |
| COc1nc(=O)n(C2CC(F)C(CO)O2)cc1C (stereo not given) | > 100 µM (inactive) |
| C=C[C@@H](OCOCC[Si](C)(C)C)[C@@H](CC)OC(CCCOC(=O)C(C)(C)C)OC (stereo not given in full) | 49 µM (inactive) |
| N#Cc1nc2ccccc2nc1N1CCN(c2ccc([N+](=O)[O-])cc2)CC1 | > 100 µM (inactive) |
| N#Cc1nn(C(N)=O)c(N)c1C#N | > 100 µM (inactive) |
| CCCCS(=O)(=O)CCC(N)P(=O)(O)O (stereo not given) | > 100 µM (inactive) |

Look up GI50 for this molecule: "O=C(/C=C/c1cccc([N+](=O)[O-])c1)N1CCN(CCOC(c2ccccc2)c2ccccc2)CC1"
42.6 µM (inactive)

And "CC(C)(C)c1cc(C(=O)/C=C/c2cc[nH]n2)cc(C(C)(C)C)c1O" ?
1.93 µM (inactive)

And Cc1ccc2c(c1)-c1c3c(nn1-c1ccccc1)-c1ccccc1SC3O2 (stereo not given) ?
> 100 µM (inactive)

And CN(C)/C=N/c1nc2c(ncn2C2OC(CO)C(O)C2O)c(=O)[nH]1 (stereo not given) ?
> 100 µM (inactive)

And "CC(C)=NNc1cnnc2ccc([N+](=O)[O-])cc12" ?
21.4 µM (inactive)

And "C/C(=N\NS(=O)(=O)c1ccc(C)cc1)c1c(O)cc(C)oc1=O" ?
> 100 µM (inactive)

====

test system: K562; experiment: NCI tumour cell line growth inhibition, 48 h
Activity calls are given as the source filed them. No stated cut-off is given here; in the data, active = GI50 up to about 1.1 µM and inactive = higher.
Give your call using only these classes: active, inactive

Illustrative cases are given below, each with its answer.
| compound | cat |
| --- | --- |
| Cc1cccc2c1C(=O)C(C1OC(=O)c3ccccc31)C2 (stereo not given) | inactive |
| O=C(c1ccccc1)c1nc2ccc(Cl)cc2cc1C(Br)Br | active |
| NC(=O)NC(=O)c1cccc(NC(=O)CCl)c1 | active |
| N#CC(C#N)=C/C=C(\Sc1c(Cl)c(Cl)nc(Cl)c1Cl)c1ccc(Cl)cc1 | inactive |
| O=C(O)c1c(-c2c3ccc(=O)cc-3oc3cc(O)ccc23)cc2ccccc2c1-c1ccccc1 | inactive |
| Cc1cc(-c2nc3ccccc3s2)ccc1NC(=O)[C@H](C)N | inactive |
| CC1OC(OC2C[C@](O)(C(=O)CBr)Cc3c(O)c4c(c(O)c32)C(=O)c2ccccc2C4=O)C(F)C(O)C1O (stereo not given in full) | inactive |
| O=C(NC1C2CC3CC(C2)CC1C3)c1ccncn1 (stereo not given) | inactive |

// param item: "O=c1cc(/N=N/c2ccc(O)cc2)[nH]c(=O)[nH]1" ; yields the recorded call
inactive

And CCN(CC)CC(=O)N1CCc2c([nH]c3ccccc23)C1c1cccnc1 (stereo not given) ?
inactive

====

tested on: SF-295; assay: NCI tumour cell line growth inhibition, 48 h
The source made the active and inactive calls. Rule as the data show it: active = GI50 up to about 1.1 µM and inactive = higher.
measurementLabel: GI50

A selection of reference data follows.
| compound | testTarget | measurementLabel | endpointValue |
| --- | --- | --- | --- |
| CCOC(=O)C(=O)Nc1ccc(C)cc1C | SF-295 | GI50 | > 100 µM (inactive) |
| C=C(Cl)[C@@](Cl)(CBr)CC[C@@H](Br)C(C)(C)Cl | SF-295 | GI50 | 0.207 µM (active) |
| Cc1nc2c(=O)n(C)c(=O)nc-2n(-c2ccc(Cl)cc2)c1C | SF-295 | GI50 | > 100 µM (inactive) |
| S=c1[nH]nc(Cc2ccccc2)c(=S)[nH]1 | SF-295 | GI50 | > 59.3 µM (inactive) |
| NC1CC2C3CCC2C1C3=O (stereo not drawn) | SF-295 | GI50 | > 100 µM (inactive) |
| CC(C)=CCC[C@@H](C)C1=C(Nc2ccccc2)C(=O)C(C)=C(O)C1=O | SF-295 | GI50 | 1.85 µM (inactive) |
| CN(C)CC1CCC/C1=N/OC(=O)c1ccccc1 (stereo not drawn) | SF-295 | GI50 | > 100 µM (inactive) |
| C=CCC1(OC(C)=O)C2OC(=O)C1(O)OCC2O (stereo not drawn) | SF-295 | GI50 | > 100 µM (inactive) |
| CC1(C)OC[C@@H](O)[C@H](C#N)CO1 | SF-295 | GI50 | > 100 µM (inactive) |
| Nc1cc2nc(-c3ccccc3)cn2cn1 | SF-295 | GI50 | > 100 µM (inactive) |

What value of GI50 on SF-295 does "O=C(O)COc1c(Cl)cc(Cl)c2cccnc12" have?
> 100 µM (inactive)

And "O=C1/C(=C/c2ccccc2)CCc2ccc(Cl)nc21" ?
17.2 µM (inactive)

And "COC1=CC(=O)c2nc3ccccc3c3ccnc1c23" ?
4.48 µM (inactive)

====

Below, each entry is listed with its recorded GI50.
tested on: MDA-N; assay: NCI tumour cell line growth inhibition, 48 h
Calls of active or inactive are those of the source. Cut-off read from the data, not from the text of the source: active = GI50 up to about 1.1 µM and inactive = higher.

| molecule | GI50 |
| --- | --- |
| CCOC(=O)c1cnc2oc3ccc(O)cc3c2c1C | > 100 µM (inactive) |
| COC(CN(C)C(=S)Nc1cccc2ccccc12)OC | > 10 µM (inactive) |
| O=C([O-])Cc1ccccc1.[Na+] [SODIUM PHENYLACETATE] | 10.6 µM (inactive) |
| COC(=O)C1(C(=O)OC)N=C(C)OC1c1ccoc1 (stereo not drawn) | > 100 µM (inactive) |
| COc1cc(-c2cc(=O)c3c(O)c(OC)c(OC)c(OC)c3o2)cc(OC)c1OC [GARDENIN] | > 92.7 µM (inactive) |

Look up GI50 for this molecule: "O=C(N/N=C1/C(=O)c2c3ccccc3cc3cccc1c23)c1ccccc1"
39.4 µM (inactive)

And "CCOC(=O)/C(C(=O)Nc1cccc(C(F)(F)F)c1)=C(/N)N1CCOCC1" ?
> 100 µM (inactive)

And "O=C(CSc1nc2ccc(I)cc2c(=O)n1Cc1ccccc1)N/N=C/c1ccccc1" ?
> 100 µM (inactive)

And CC(C)(C)c1ccc(S(=O)(=O)N2C(c3cccc(C4CC[C@@H](C(=O)O)N4S(=O)(=O)c4ccc(C(C)(C)C)cc4)c3)CC[C@H]2C(=O)O)cc1 (stereo partly drawn) ?
55.2 µM (inactive)

And "N#Cc1c(-c2ccccc2)cc(-c2ccc(Cl)cc2)[nH]c1=S" ?
34.5 µM (inactive)

And CC(=O)OCC1OC(OC2CC3C(C)(C)C(=O)CC[C@]3(C)C3CC[C@]45C[C@]4(CCC5[C@@H](C)CC(O)C(O)C(C)(C)O)[C@]23C)C(O)C(O)C1O (stereo partly drawn) ?
10.7 µM (inactive)

And CC1=NN(c2ccccc2)C2(C1)C(Cl)C(=O)N2c1nc2ccccc2s1 (stereo not drawn) ?
35.6 µM (inactive)

And "C=CC1(c2ccc(OC)cc2)OCCCO1" ?
> 100 µM (inactive)

====

tested on: BT-549; test: NCI tumour cell line growth inhibition, 48 h
Calls of active or inactive are those of the source. No stated cut-off is given here; in the data, active = GI50 up to about 1.1 µM and inactive = higher.
Below, each entry is listed with its recorded GI50.

| compound | GI50 |
| --- | --- |
| Cc1cccc2c1nc1n2C(=O)c2ccccc2-1 | > 100 µM (inactive) |
| S=c1[nH]nc(Cc2ccccc2)c(=S)[nH]1 | 35.2 µM (inactive) |
| COc1ccc(C2NC3=C(CCCC3)C3(C#N)C(=O)N=C(N)C23C#N)cc1 (stereo not drawn) | > 100 µM (inactive) |
| CCOc1ccc(N/C(=C(/C(Cl)=C(/Cl)NC(C)(C)C)[N+](=O)[O-])n2nnc3ccccc32)cc1 | 17.9 µM (inactive) |
| Oc1cccc(-c2cn3cc(Cl)ccc3n2)c1 | 51.1 µM (inactive) |
| COc1ccc(N2C(=O)C3c4[nH]c5ccc([N+](=O)[O-])cc5c4C4CCC(C(C)(C)C)CC4C3C2=O)cc1 (stereo not drawn) | 14.5 µM (inactive) |
| Fc1cccc2nc(-c3ccccc3)cc(OCc3ccccc3)c12 | > 100 µM (inactive) |
| C=C(Cl)[C@@](Cl)(CBr)CC[C@@H](Br)C(C)(C)Cl | 3.66 µM (inactive) |
| NC1=NC(c2ccc(Cl)cc2)N(c2ccc(S(N)(=O)=O)cc2)C(N)=N1 (stereo not drawn) | > 100 µM (inactive) |
| CC(SC(=S)N1CCOCC1)C(=O)Nc1nnc(-c2ccccc2)o1 (stereo not drawn) | > 100 µM (inactive) |

Look up GI50 for this compound: "CN(CCc1ccc(Br)cc1)CCN1CCCCC1"
24.8 µM (inactive)

And "Cc1cc(C)n2nc3nc(N)c(C#N)c(-c4ccccc4)c3c2n1" ?
> 100 µM (inactive)

And CC(C)Cc1ccc(C(C)/C=C2\CCC(CN3CCOCC3)C2=O)cc1 (stereo not drawn) ?
17.9 µM (inactive)

And "CC1(C)CC(=O)c2c(nc3c(ccc4ccccc43)c2-c2ccc(NC(=O)CCC(=O)Nc3ccc(-c4c5c(nc6c4ccc4ccccc46)CC(C)(C)CC5=O)cc3)cc2)C1" ?
> 100 µM (inactive)

And "CC(=O)O[C@H]1CC[C@@]2(C)C(=CC[C@@H]3[C@@H]2CC[C@]2(C)C(=N/O)/C(=C/c4ccc([N+](=O)[O-])cc4)C[C@@H]32)C1" ?
2.25 µM (inactive)

And "C[C@H](CCC(=O)O)[C@H]1CC[C@H]2[C@@H]3[C@@H](O)C[C@@H]4C[C@H](O)CC[C@]4(C)[C@H]3CC[C@]12C" ?
> 100 µM (inactive)

And "NC(=O)OCc1c(-c2ccccc2)nn(-c2ccccc2)c1COC(N)=O" ?
> 100 µM (inactive)

And "CC(=O)n1nc(-c2nc3ccccc3nc2Cl)cc1Cl" ?
5.89 µM (inactive)
